Biological target: T1, human MHC class II DR protein (DRA*0101/DRB1*0401), purified from PRIESS cells (human, UniProt P01903 26-254; P01911 30-266, limits assumed)
T1 construct: mature; also called HLA-DR protein; MHCII
T1 MHC II alpha: not shown
T1 MHC II beta: not shown
Assay: SPR (BIAcore), MHCII on CM5 chip
Give measured kon for each item. Keep answers brief.
Give a bare numeral; the unit M⁻¹ s⁻¹ is implied.

Kindly note the recorded kon for MS-GPC-8-27-7 Fab (Fab, V domains shown, Fab: VH-CH1 with FLAG tag and STREP tag II, VL-CL; VH residue 1 is Q in Fab) VH: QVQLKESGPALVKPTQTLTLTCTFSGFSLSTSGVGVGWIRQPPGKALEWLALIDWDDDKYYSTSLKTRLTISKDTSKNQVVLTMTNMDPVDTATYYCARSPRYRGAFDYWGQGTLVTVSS VL: DIVLTQPPSVSGAPGQRVTISCSGSESNIGNNYVGWYQQLPGTAPKLLIYDNNQRPSGVPDRFSGSKSGTSASLAITGLQSEDEADYYCQSYDMNVHVFGGGTKLTVLG , which is 170000

Kindly note the recorded kon for MS-GPC-8-6-13 Fab (Fab, V domains shown, Fab: VH-CH1 with FLAG tag and STREP tag II, VL-CL; VH residue 1 is Q in Fab; also called 305D3) VH: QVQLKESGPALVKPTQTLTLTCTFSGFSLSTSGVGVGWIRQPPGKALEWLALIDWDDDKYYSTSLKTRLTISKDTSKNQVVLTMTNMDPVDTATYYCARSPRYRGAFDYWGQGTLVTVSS VL: DIVLTQPPSVSGAPGQRVTISCSGSESNIGANYVTWYQQLPGTAPKLLIYDNNQRPSGVPDRFSGSKSGTSASLAITGLQSEDEADYYCQSYDYDHYVFGGGTKLTVLG , which is 190000

Kindly note the recorded kon for MS-GPC-8-6-2 Fab (Fab, V domains shown, Fab: VH-CH1 with FLAG tag and STREP tag II, VL-CL; VH residue 1 is Q in Fab) VH: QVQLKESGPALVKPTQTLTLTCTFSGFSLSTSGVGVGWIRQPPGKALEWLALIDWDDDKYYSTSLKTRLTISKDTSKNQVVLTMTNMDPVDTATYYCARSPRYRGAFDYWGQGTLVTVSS VL: DIVLTQPPSVSGAPGQRVTISCSGSESNIGSNYVHWYQQLPGTAPKLLIYDNNQRPSGVPDRFSGSKSGTSASLAITGLQSEDEADYYCQSYDYDHYVFGGGTKLTVLG , which is 120000

Kindly note the recorded kon for MS-GPC-8-6-45 Fab (Fab, V domains shown, Fab: VH-CH1 with FLAG tag and STREP tag II, VL-CL; VH residue 1 is Q in Fab) VH: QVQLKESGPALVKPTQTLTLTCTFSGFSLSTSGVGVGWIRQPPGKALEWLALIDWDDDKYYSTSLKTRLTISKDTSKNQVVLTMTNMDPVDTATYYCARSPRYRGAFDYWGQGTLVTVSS VL: DIVLTQPPSVSGAPGQRVTISCSGSEPNIGSNYVFWYQQLPGTAPKLLIYDNNQRPSGVPDRFSGSKSGTSASLAITGLQSEDEADYYCQSYDYDHYVFGGGTKLTVLG , which is 120000

Kindly note the recorded kon for MS-GPC-8-6-47 Fab (Fab, V domains shown, Fab: VH-CH1 with FLAG tag and STREP tag II, VL-CL; VH residue 1 is Q in Fab) VH: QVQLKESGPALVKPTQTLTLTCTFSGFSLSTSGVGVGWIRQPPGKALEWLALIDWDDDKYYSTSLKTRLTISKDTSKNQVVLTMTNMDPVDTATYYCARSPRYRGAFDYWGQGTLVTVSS VL: DIVLTQPPSVSGAPGQRVTISCSGSESNIGSNYVSWYQQLPGTAPKLLIYDNNQRPSGVPDRFSGSKSGTSASLAITGLQSEDEADYYCQSYDYDHYVFGGGTKLTVLG , which is 200000

Kindly note the recorded kon for MS-GPC-8-6-19 Fab (Fab, V domains shown, Fab: VH-CH1 with FLAG tag and STREP tag II, VL-CL; VH residue 1 is Q in Fab) VH: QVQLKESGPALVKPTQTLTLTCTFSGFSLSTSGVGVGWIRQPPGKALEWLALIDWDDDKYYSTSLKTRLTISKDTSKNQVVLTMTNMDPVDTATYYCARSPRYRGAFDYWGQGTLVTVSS VL: DIVLTQPPSVSGAPGQRVTISCSGSESNIGSNYVAWYQQLPGTAPKLLIYDNNQRPSGVPDRFSGSKSGTSASLAITGLQSEDEADYYCQSYDYDHYVFGGGTKLTVLG , which is 110000
